Origin of the recorded values: ChEMBL document CHEMBL3407330

Species on record: Homo sapiens
measurement_description: Selectivity ratio of Ki for human 5-HT7 receptor to Ki for human 5-HT1A receptor
observation_type: Ratio Ki

CC(C)c1ccccc1N1CCN(CCCCCCC(=O)N2CCC[C@H]2C(N)=O)CC1 7
O=C([C@@H]1Cc2ccccc2CN1C(=O)CCCCCCN1CCN(c2ccccc2-c2ccccc2)CC1)N1CCOCC1 < 1

Lookup: Reported Ratio Ki for O=C([C@@H]1CCCN1C(=O)CCCCCN1CCN(c2ccccc2-c2ccccc2)CC1)N1CCCCC1 : what is it?
Found: < 1

====

Items are presented alongside their recorded pKi.
test_target: 5-hydroxytryptamine receptor 1A (Homo sapiens)
Sequence (P08908 whole entry): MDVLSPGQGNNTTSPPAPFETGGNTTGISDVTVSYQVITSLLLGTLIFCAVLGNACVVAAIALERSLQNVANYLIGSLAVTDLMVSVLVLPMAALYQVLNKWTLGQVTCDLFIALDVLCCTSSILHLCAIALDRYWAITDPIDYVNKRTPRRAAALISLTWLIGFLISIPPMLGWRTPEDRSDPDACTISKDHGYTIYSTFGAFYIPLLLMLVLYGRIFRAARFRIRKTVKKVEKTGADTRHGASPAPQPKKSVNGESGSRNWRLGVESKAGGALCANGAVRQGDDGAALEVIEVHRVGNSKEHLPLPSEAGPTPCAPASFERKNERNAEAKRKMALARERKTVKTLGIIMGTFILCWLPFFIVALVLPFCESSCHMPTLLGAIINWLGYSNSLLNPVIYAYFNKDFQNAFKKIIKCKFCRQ
measurement_description: Displacement of [3H]-8-OH-DPAT from human 5HT1A receptor expressed in HEK293 cells after 1 hr
Type: cell-based
Kindly note that pKi refers to -log10 of the concentration in mol/L and answer with the value alone.

O=C([C@@H]1CCCN1C(=O)CCCCCN1CCN(c2ccccc2-c2ccccc2)CC1)N1CCCCC1 7.74
O=C([C@@H]1Cc2ccccc2CN1C(=O)CCCCCCN1CCN(c2ccccc2-c2ccccc2)CC1)N1CCCCC1 7.40
CC(C)c1ccccc1N1CCN(CCCCCC(=O)N2Cc3ccccc3C[C@H]2C(=O)N2CCCCC2)CC1 7.80

Lookup: Reported pKi for O=C([C@@H]1Cc2ccccc2CN1C(=O)CCCCCCN1CCN(c2ccccc2-c2ccccc2)CC1)N1CCOCC1 : what is it?
Found: 7.80

Lookup: Reported pKi for CC(C)c1ccccc1N1CCN(CCCCCCC(=O)N2CCC[C@H]2C(=O)N2CCCCC2)CC1 : what is it?
Found: 9.00

Lookup: Reported pKi for O=C([C@@H]1Cc2ccccc2CN1C(=O)CCCCN1CCN(c2ccccc2-c2ccccc2)CC1)N1CCOCC1 : what is it?
Found: 7.44

Lookup: Reported pKi for NC(=O)[C@@H]1CCCN1C(=O)CCCCCCN1CCN(c2ccccc2-c2ccccc2)CC1 : what is it?
Found: 7.28

Lookup: Reported pKi for CC(C)c1ccccc1N1CCN(CCCCCCC(=O)N2CCC[C@H]2C(=O)N2CCOCC2)CC1 : what is it?
Found: 7.77
